- target: T1, PDZD11, Q5EBL8
- T1 sequence (Q5EBL8 42-139, limits assumed, looked up): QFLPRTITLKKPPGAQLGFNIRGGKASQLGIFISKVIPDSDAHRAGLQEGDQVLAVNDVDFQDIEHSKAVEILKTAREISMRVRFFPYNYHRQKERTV
- testDescription: holdup assay
- Design: key: below the threshold = too weak to quantify, mostly under pKd 3.1 to 4
- studyConditions: plain residues with an end cap or a label only (N-terminal biotin on a linker: ttds)

{"binder": "SSRTRRETQL [HPV16-E6, P03126]", "pKd": "below the threshold"}
{"binder": "SVWLRKETRV [CYSLTR2, Q9NS75]", "pKd": "below the threshold"}
{"binder": "SRPQRTQTQV [HPV67-E6, A4U7F2]", "pKd": "below the threshold"}

The origin of these recorded values is paper PMC9482650.
